FYI, the data here is from ChEMBL document CHEMBL2203267.

# System: Liver microsomes
# assay name: Antioxidant activity in Wistar rat liver microsomes assessed as inhibition of lipid peroxidation after 60 mins by UV-vis spectrophotometric analysis
# Type: functional, Microsome
measurement kind: IC50 (µM)
Answers are plain numbers, in µM.

{"compound": "COc1cc(C2CC(=NOC(=O)c3cc(O)cc(O)c3)CC(c3ccc(O)c(OC)c3)N2C)ccc1O (centres undefined)", "reported value": 17.2}
{"compound": "COc1ccc(C(=O)ON=C2CC(c3ccc(O)c(OC)c3)N(C)C(c3ccc(O)c(OC)c3)C2)cc1 (centres undefined)", "reported value": 40}
{"compound": "COc1ccc(C(=O)ON=C2CC(c3ccc(O)c(OC)c3)N(C)C(c3ccc(O)c(OC)c3)C2)c(OC)c1 (centres undefined)", "reported value": 52}
{"compound": "COc1cc(C2CC(=NOC(=O)c3ccc([N+](=O)[O-])cc3)CC(c3ccc(O)c(OC)c3)N2C)ccc1O (centres undefined)", "reported value": 82}
{"compound": "COc1cc(C2CC(=NOC(=O)c3ccccc3O)CC(c3ccc(O)c(OC)c3)N2C)ccc1O (centres undefined)", "reported value": 24.1}
{"compound": "COc1cc(C2CC(=NOC(=O)c3ccccc3)CC(c3ccc(O)c(OC)c3)N2C)ccc1O (centres undefined)", "reported value": 165}
{"compound": "COc1cc(C2CC(=NOC(=O)c3ccc(F)cc3)CC(c3ccc(O)c(OC)c3)N2C)ccc1O (centres undefined)", "reported value": 140}
{"compound": "COc1cc(C2CC(=NO)CC(c3ccc(O)c(OC)c3)N2C)ccc1O (centres undefined)", "reported value": 167}

Prompt: Quick one: IC50 for COc1cc(C2CC(=NOC(=O)c3cc(OC)c(OC)c(OC)c3)CC(c3ccc(O)c(OC)c3)N2C)ccc1O (centres undefined) ?
Completion: 61
